Entries and their MRT inf
assay: Pharmacokinetics in ICR mice after intravenous and intragastric administration; assay type: in vivo; details: male, ICR, mouse, plasma, po, 5 mg/kg, ICR mice, PO 5 mg/kg, mean of 3 animals; read-out: MRT(0-∞)
// return numeric value only (unit: h, not printed)

> print(dat)
                               entry.smiles  reported.metric  meas.value
1  COc1nc(C2CC2)ncc1-c1nc2c(n1C(C)C)[C@@]1(C(=O)Nc3cc(Cl)ccc31)N(c1cc(Cl)cnc1C)C2=O          MRT inf        2.34
2  COc1ncc(-c2nc3c(n2C(C)C)[C@@]2(C(=O)Nc4cc(Cl)ccc42)N(c2cc(Cl)ccc2F)C3=O)c(OC)n1          MRT inf        3.59

Value of measured MRT inf for the entry COc1cc(OC)c(-c2nc3c(n2C(C)C)[C@@]2(C(=O)Nc4cc(Cl)ccc42)N(c2cccc(Cl)c2)C3=O)cn1 : 2.33

Value of measured MRT inf for the entry COc1ccc(-c2nc3c(n2C(C)C)[C@@]2(C(=O)Nc4cc(Cl)ccc42)N(c2cc(Cl)cnc2C)C3=O)c(OC)c1 : 2.95

Value of measured MRT inf for the entry COc1cc(C(F)(F)F)ncc1-c1nc2c(n1C(C)C)[C@@]1(C(=O)Nc3cc(Cl)ccc31)N(c1cc(Cl)ccc1C)C2=O : 4.72

Value of measured MRT inf for the entry COc1ncc(-c2nc3c(n2C(C)C)[C@@]2(C(=O)Nc4cc(Cl)ccc42)N(c2cc(F)cc(Cl)c2)C3=O)c(OC)n1 : 2.99

---

experiment: Pharmacokinetics in ICR mice after intravenous and intragastric administration; type: in vivo; details: ICR mice, PO 5 mg/kg, individual animal; 5 mg/kg
Entries and their Tmax
// return numeric value only (unit: h, not printed)

Past entries and their recorded results:
> print(dat)
                               entry.smiles  reported.metric  meas.value
1  COc1ncc(-c2nc3c(n2C(C)C)[C@@]2(C(=O)Nc4cc(Cl)ccc42)N(c2cc(F)cc(Cl)c2)C3=O)c(OC)n1             Tmax        1.00
2  COc1ncc(-c2nc3c(n2C(C)C)[C@@]2(C(=O)Nc4cc(Cl)ccc42)N(c2cc(Cl)ccc2F)C3=O)c(OC)n1             Tmax        2.00
3  CCOc1cc(OC)c(-c2nc3c(n2C(C)C)[C@@]2(C(=O)Nc4cc(Cl)ccc42)N(c2cc(Cl)ccc2C)C3=O)cn1             Tmax        1.00

Value of measured Tmax for the entry COc1cc(C2CC2)ncc1-c1nc2c(n1C(C)C)[C@@]1(C(=O)Nc3cc(Cl)ccc31)N(c1cc(Cl)ccc1C)C2=O : 4.00

Value of measured Tmax for the entry COc1ccc(-c2nc3c(n2C(C)C)[C@@]2(C(=O)Nc4cc(Cl)ccc42)N(c2cc(Cl)cnc2C)C3=O)c(OC)c1 : 0.50

---

assay: Pharmacokinetics in ICR mice after intravenous and intragastric administration; assay type: in vivo; settings: male, ICR, mouse, plasma, po, 5 mg/kg, ICR mice, PO 5 mg/kg, individual animal
reported metric: AUC(0-inf) (ng·h/mL)
// return numeric value only (unit: ng·h/mL, not printed)

> print(dat)
                                   compound  reported.metric  meas.value
1  COc1ncc(-c2nc3c(n2C(C)C)[C@@]2(C(=O)Nc4cc(Cl)ccc42)N(c2cc(F)cc(Cl)c2)C3=O)c(OC)n1 [Example S-45]       AUC(0-inf)        6350
2  COc1cc(C(C)C)ccc1-c1nc2c(n1C(C)C)[C@@]1(C(=O)Nc3cc(Cl)ccc31)N(c1cc(Cl)ccc1C)C2=O [Example S-32]       AUC(0-inf)        7100

Here is the next item to consider.
Value of measured AUC(0-inf) for the entry COc1cc(OC(C)C)ncc1-c1nc2c(n1C(C)C)[C@@]1(C(=O)Nc3cc(Cl)ccc31)N(c1cc(Cl)ccc1C)C2=O [Example S-69] : 69300
